# GI50 per record follows
# procedureDetails: Cytotoxicity against human EKVX cells assessed as growth inhibition after 48 hrs by SRB assay
# Assay type: functional
All answers are understood in nM, so give the number only.

smiles: COc1ccc(CN2c3ccccc3CCc3ccccc32)cc1F
GI50 [nM]: 1550
//
smiles: COc1ccc(CN2c3ccccc3Sc3ccccc32)cc1O
GI50 [nM]: 378
//
smiles: COc1ccc(CN2c3ccccc3Sc3ccccc32)cc1F
GI50 [nM]: 612

Q. Bench note: what GI50 did `COc1ccc(CN2c3ccccc3Sc3ccccc32)c(C(F)(F)F)c1` show?
A. 1200

* * *

# procedureDetails: Cytotoxicity against human MOLT4 cells assessed as growth inhibition at 10 uM after 48 hrs by SRB assay relative to control
# Assay type: functional
# experimentalConditions: MOLT-4, 48 h, read-out: GI
Recorded inhibition of growth at 10 µM, one value per entry.
Report as a plain number; the unit % is understood.

smiles: COc1ccc(CN2c3ccccc3CCc3ccccc32)cc1F
uom: %
inhibition of growth at 10 µM: 84
--
smiles: COc1ccc(CN2c3ccccc3Sc3ccccc32)cc1O
uom: %
inhibition of growth at 10 µM: 82
--
smiles: COc1ccc(CN2c3ccccc3Oc3ccccc32)cc1O
uom: %
inhibition of growth at 10 µM: 75
--
smiles: COc1ccc(CN2c3ccccc3Sc3ccccc32)c(F)c1
uom: %
inhibition of growth at 10 µM: 77

Q. Fill in: inhibition of growth at 10 µM of `COc1ccc(CN2c3ccccc3Oc3ccccc32)cc1F` is ___
A. 58

Q. What value of measured inhibition of growth at 10 µM is listed for `COc1ccc(CN2c3ccccc3Sc3ccccc32)cc1F` ?
A. 73

Q. inhibition of growth at 10 µM for `COc1ccc(CN2c3ccccc3Sc3ccccc32)c(C(F)(F)F)c1` ?
A. 76
